# TARGET OR TEST SYSTEM: T1, LF-Biotin (B. anthracis, UniProt P15917 34-809)
# T1 sequence: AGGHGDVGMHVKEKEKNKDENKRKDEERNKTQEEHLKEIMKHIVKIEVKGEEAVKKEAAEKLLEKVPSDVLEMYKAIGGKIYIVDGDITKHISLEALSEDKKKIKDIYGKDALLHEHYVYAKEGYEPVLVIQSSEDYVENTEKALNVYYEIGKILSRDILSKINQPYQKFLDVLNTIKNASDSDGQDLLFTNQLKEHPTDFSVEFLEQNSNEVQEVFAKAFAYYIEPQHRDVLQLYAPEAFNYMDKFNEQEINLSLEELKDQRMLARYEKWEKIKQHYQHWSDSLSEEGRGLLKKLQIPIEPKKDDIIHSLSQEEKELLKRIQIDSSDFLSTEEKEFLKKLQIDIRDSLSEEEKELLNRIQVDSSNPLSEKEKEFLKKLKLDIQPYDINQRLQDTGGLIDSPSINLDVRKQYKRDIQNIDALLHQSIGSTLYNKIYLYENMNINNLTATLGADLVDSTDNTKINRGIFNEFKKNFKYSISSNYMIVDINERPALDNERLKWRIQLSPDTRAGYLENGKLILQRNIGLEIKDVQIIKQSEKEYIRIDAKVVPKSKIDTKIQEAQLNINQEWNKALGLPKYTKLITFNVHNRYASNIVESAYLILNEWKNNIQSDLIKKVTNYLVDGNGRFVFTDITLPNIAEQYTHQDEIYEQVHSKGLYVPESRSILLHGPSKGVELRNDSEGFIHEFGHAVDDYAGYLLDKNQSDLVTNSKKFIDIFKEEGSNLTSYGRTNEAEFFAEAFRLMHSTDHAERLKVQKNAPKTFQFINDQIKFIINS
# METHOD SUMMARY: non-adsorbed phage ELISA, VHH on M13 phage, LF-Biotin vs His-SNAP-Halo-Biotin
PARAMETER MEASURED: Phage ELISA ratio signal LF/signal His-SNAP-Halo (ratio)
Use ratio as the unit, but write only the number.

The examples below pair each entry with its known result.
clone 7 (VHH) VHH: EVQLQASGGGFVQPGGSLRLSCAASGTSYANSDMGWFRQAPGKEREFVSAISGGDSAYYYYADSVKGRFTISRDNSKNTVYLQMNSLRAEDTATYYCATQQIGMREYYWGQGTQVTVSS; 17
clone 10 (VHH) VHH: EVQLQASGGGFVQPGGSLRLSCAASGRTSWSEIMGWFRQAPGKEREFVSAISRYTDDYSYYADSVKGRFTISRDNSKNTVYLQMNSLRAEDTATYYCATYHYQYGGDQTFYWGQGTQVTVSS; 7.7
clone 6 (VHH) VHH: EVQLQASGGGFVQPGGSLRLSCAASGTTYSSDTMGWFRQAPGKEREFVSAISGRQNWDRYYADSVKGRFTISRDNSKNTVYLQMNSLRAEDTATYYCAYWGHGTYEFDPKSMYWGQGTQVTVSS; 8.9
clone 3 (VHH) VHH: EVQLQASGGGFVQPGGSLRLSCAASGSTSYSYNMGWFRQAPGKEREFVSAISRDGDWKNYYADSVKGRFTISRDNSKNTVYLQMNSLRAEDTATYYCAFEEHWMTPLYWGQGTQVTVSS; 47.2
clone 2 (VHH) VHH: EVQLQASGGGFVQPGGSLRLSCAASGFFSNIEDMGWFRQAPGKEREFVSAISGYENESPYYADSVKGRFTISRDNSKNTVYLQMNSLRAEDTATYYCAAQSYHGKKGMTEYWGQGTQVTVSS; 36.5

Requested read-out: Phage ELISA ratio signal LF/signal His-SNAP-Halo. Entry: clone 4 (VHH) VHH: EVQLQASGGGFVQPGGSLRLSCAASGRTFRIDTMGWFRQAPGKEREFVSAISFDTSHENYYADSVKGRFTISRDNSKNTVYLQMNSLRAEDTATYYCAPESMWFSIEYWGQGTQVTVSS 34.6

I'd like to know its Phage ELISA ratio signal LF/signal His-SNAP-Halo. The binder in question is clone 9 (VHH) VHH: EVQLQASGGGFVQPGGSLRLSCAASGSYSAETDMGWFRQAPGKEREFVSAISGDPTTTTYYADSVKGRFTISRDNSKNTVYLQMNSLRAEDTATYYCAYQRLDNFEIYWGQGTQVTVSS 38.1
